# experimental-target: μ-opioid receptor (Homo sapiens (Human), UniProt P35372)
# protocol-details: μ-opioid receptor [35S]GTPγS functional assay, U-2 OS cells
# Type: biochemical
# Protocol: μ-Opioid Receptor Functional Assay Procedures: [^35S]GTPγS functional assays were conducted using freshly thawed μ-receptor membranes prepared in-house from a cell line expressing recombinant μ opioid receptor in a HEK-293, CHO or U-2 OS cell background, or purchased from a commercial source (Perkin Elmer, Shelton, Conn.; or DiscovRx, Fremont, Calif.). […] Data were analyzed using the sigmoidal dose-response curve fitting functions in GraphPad PRISM v. […]
pEC50: −log10 of the molar value.
assay-metric: pEC50

For record COc1ccc2c(c1)[C@]13CCN(C/C=C/c4ccccc4)[C@H](C2)[C@]1(O)CC[C@@]1(C3)NC(=O)NC1=O [Compound 24] the listed pEC50 is < 4.70

Lookup result for CCN1C(=O)NC(=O)[C@@]12CC[C@@]1(O)[C@H]3Cc4ccc(O)cc4[C@@]1(CCN3CC1CC1)C2 [Compound 49] ; measured pEC50: < 4.70

The compound listed as O=C1NC(=O)[C@@]2(CC[C@@]3(O)[C@H]4Cc5ccc(O)cc5[C@@]3(CCN4CC3CC3)C2)N1CC1CC1 [Compound 65] has a reported pEC50 of < 4.70

Value of measured pEC50 for the entry COc1ccc2c(c1)[C@]13CCN(CCF)[C@H](C2)[C@]1(O)CC[C@@]1(C3)NC(=O)NC1=O [Compound 14] : < 4.70

Noted for O=C1NC(=O)[C@@]2(CC[C@@]3(O)[C@H]4Cc5ccc(O)cc5[C@@]3(CCN4CC(F)F)C2)N1 [Compound 38] : its pEC50 reads < 4.70

Noted for COc1ccc2c(c1)[C@]13CCN(CC(F)(F)F)[C@H](C2)[C@]1(O)CC[C@@]1(C3)NC(=O)NC1=O [Compound 13] : its pEC50 reads < 4.70

Looking up O=C1NC(=O)[C@@]2(CC[C@@]3(O)[C@H]4Cc5ccc(O)cc5[C@@]3(CCN4CC(F)(F)F)C2)N1 [Compound 32] , I found its pEC50 recorded as < 4.70

Lab note: COc1ccc2c(c1)[C@]13CCN(CCCc4ccccc4)[C@H](C2)[C@]1(O)CC[C@@]1(C3)NC(=O)NC1=O [Compound 26] gave pEC50 of < 4.70

Briefly, pEC50 measured for COc1ccc2c(c1)[C@]13CCN(CCC(F)(F)F)[C@H](C2)[C@]1(O)CC[C@@]1(C3)NC(=O)NC1=O [Compound 17] : < 4.70
